Listed next: entries and their corresponding EC50.
# Test system: Influenza A virus
# procedureText: Anti-influenza activity against Influenza A virus B/Yamagata infected in chicken embryo fibroblast assessed as reduction in viral growth
# Format: functional, organism-based
Give the value, in units of µM, as a plain number.

So what's the measured EC50 for this one? CCOc1ccc(/C=C/C(=O)/C=C/c2c(OC)cccc2OC)cc1
4.82

Continuing:
So what's the measured EC50 for this one? COc1cccc(OC)c1C(=O)/C=C/c1nc(C)c(C)nc1C
2.47

So what's the measured EC50 for this one? CCC(CC)O[C@@H]1C=C(C(=O)O)C[C@H](N)[C@H]1NC(C)=O [OSELTAMIVIR CARBOXYLATE]
0.98

So what's the measured EC50 for this one? COc1cccc(OC)c1/C=C/C(=O)/C=C/c1ccc(N2CCOCC2)cc1
4.82

Values were extracted from ChEMBL document CHEMBL5634128.
